Population Normal (%) values, listed per item
# Test system: U2OS
# Assay Details: Multiplex assay against U2OS
# Type: toxicity, cell-based
# Run Conditions: human, 48 h, 10 µM, compound concentration 10 uM, replicate 2
Observable: Population Normal (%)

1) Cl.N=C(N)NC(=O)Cc1c(Cl)cccc1Cl [GUANFACINE HYDROCHLORIDE] | 98
2) CC(C)c1noc(N2CCC(COc3ccc(-c4ccc(S(C)(=O)=O)cc4)nc3)CC2)n1 | 98
3) N#Cc1c(Oc2cccc(OS(=O)(=O)CCCC(F)(F)F)c2)cccc1C(F)(F)F | 96
4) COc1ccccc1N1CCN(C[C@@H](C(=O)NC(C)(C)C)c2ccccc2)CC1.Cl.Cl | 91
5) COc1cccc2c1c(NS(=O)(=O)c1ccc(Cl)s1)nn2Cc1cccc(CNC(=O)C(C)(C)O)c1 | 96
6) CC(C)(C)c1cc(NC(=O)Nc2ccc(-c3cn4c(n3)sc3cc(OCCN5CCOCC5)ccc34)cc2)no1 | 94
7) COC[C@@H](c1ccc(C(F)(F)F)cc1)N1CCN(C2(C)CCN(C(=O)c3c(C)ncnc3C)CC2)C[C@@H]1C.O=C(O)/C=C\C(=O)O [VICRIVIROC MALEATE] | 94
8) Cc1cnc(-c2cc(N3CCN(C(=O)CCS(C)(=O)=O)CC3)ncc2Cl)c(C)c1 | 96

Every entry's value here was drawn from ChEMBL document CHEMBL5058577.
